Biological target: Glutathione peroxidase 1 (Homo sapiens) (UniProt P07203)
Sequence (P07203 whole entry, looked up): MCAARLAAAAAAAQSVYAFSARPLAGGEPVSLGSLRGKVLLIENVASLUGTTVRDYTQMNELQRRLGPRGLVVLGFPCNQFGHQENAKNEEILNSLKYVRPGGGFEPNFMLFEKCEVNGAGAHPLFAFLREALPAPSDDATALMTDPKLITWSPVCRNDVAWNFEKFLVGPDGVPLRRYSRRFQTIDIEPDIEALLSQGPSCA
Test: Primary qHTS Assay for Inhibitors of Recombinant Selenoprotein Glutathione Peroxidase 1 (GPX1) (AID 1845191); further: nearly all actives have a fitted effect of over 65% in size; on activity, negative = inhibition: on the % scale 0 is the no-effect control and ±100 the full control effect
Settings: recombinant GPX1, GR-coupled NADPH fluorescence, 15 min; series mostly up to 48.8 µM
Inconclusive results are not listed. The source made the active and inactive calls. The call rests on the fitted dose curve; in most records, active means well fitted inhibition curve with a large enough effect; inconclusive means small, poorly fitted or top-dose-only effect; inactive means flat fitted curve, though single readings scatter.
Readout name: activity, negative = inhibition

# example entries with known answers
Enquiry: For the compound C[C@@H]1CCC2C(C)(C)[C@H](O)CC[C@]2(C)[C@@]12Cc1c(O)cc3c(c1O2)CN([C@@H](CCC(=O)O)C(=O)O)C3=O (some centres undefined) , give its measured activity, negative = inhibition value.
Return: inactive

Enquiry: Input CC1CCC2C(C)(C)[C@@H](O)CC[C@]2(C)C12Cc1c(O)cc3c(c1O2)CN(C(CCC(=O)O)C(=O)O)C3=O (some centres undefined) , output reported activity, negative = inhibition.
Return: inactive

Enquiry: Determine its reported activity, negative = inhibition: CN(C)C(=O)NC1CCC(CCN2CCN(c3cccc(Cl)c3Cl)CC2)CC1 (centres undefined)
Return: inactive

Enquiry: Provide one value: measured activity, negative = inhibition of "O=C(O)/C=C/c1ccc(O)c(O[C@@H]2O[C@H](CO)[C@@H](O)[C@H](O)[C@H]2O)c1"
Return: inactive

State recorded activity, negative = inhibition for all listed compounds.
1. COc1ccc(N2CCOCC2)c2sc(NC(=O)N3CCC(C)(O)CC3)nc12
2. C=C(C(=O)O)C1CC(O)C2(C)CCCC(=C)C2C1 (centres undefined)
3. CC(CO)C1CCC2(C)CC3C(CO)CC(O)C3C(C)(O)C/C=C/12 (centres undefined)

Return:
1. inactive
2. inactive
3. inactive

* * *

Tested on: NIH3T3
Assay: Cytotoxic Profiling of Annotated Libraries Using Quantitative High-Throughput Screening (AID 1296008); further: on the % scale 0 is the no-effect control and ±100 the full control effect; nearly all actives have a fitted effect of over 60% in size
Conditions: Five cell lines viability, CellTiter-Glo ATP luminescence, 48-72 h; active compounds read low
Results filed as inconclusive are left out. Calls of active or inactive are those of the source. Calls follow the shape of the dose curve; as a rule, active = well fitted inhibition curve with a large enough effect; inconclusive = small, poorly fitted or top-dose-only effect; inactive = flat fitted curve, though single readings scatter.
What max response was measured for each of the following?

For the 2 compounds below, give their max response values.
1. O=C(OC[C@H]1O[C@H](O[C@]2(CO)O[C@H](CO)[C@@H](O)[C@@H]2O)[C@H](O)[C@@H](O)[C@@H]1O)c1ccccc1
2. CC#CC(=O)N1CCC[C@H]1c1nc(-c2ccc(C(=O)Nc3ccccn3)cc2)c2c(N)nccn12

Return:
1: 4.12% (inactive); 2: -4.42% (inactive)

Please state max response for every compound in the list that follows.
1. COC(=O)CC(C)(O)CC(=O)OCc1ccc(O[C@@H]2O[C@H](CO)[C@@H](O)[C@H](O)[C@H]2O)cc1 (some centres undefined)
2. COC(=O)CC(O)C1OC(c2ccccc2)C(O)C1O (centres undefined)

Return:
-2.06% (inactive)
-5.26% (inactive)

* * *

Test system: KB-3-1
Test: Cytotoxic Profiling of Annotated Libraries Using Quantitative High-Throughput Screening (AID 1296008); further: on the % scale 0 is the no-effect control and ±100 the full control effect; nearly all actives have a fitted effect of over 60% in size
Conditions: Five cell lines viability, CellTiter-Glo ATP luminescence, 48-72 h; active compounds read low
Results filed as inconclusive are left out. Where a SMILES comes first, the peptide text is derived from it. [ ]: non-standard residue; d: D form. ξ: configuration not given here. ξPhe(βξ-Me) = CC(c1ccccc1)C(N)C(=O)O; GABA = NCCCC(=O)O
Readout name: max response (%)
Give bare numbers, in %.

Below, 5 compounds whose answers are already recorded.
Enquiry: Read the entry C[C@@H]1O[C@@H](O[C@H]2[C@H](O)[C@@H](O)[C@H](OC3CCC4(C)C5CCC(C)(C(CO)OC6OC(CO)C(O)C(O)C6O)CC5=CCC4C3(C)C)O[C@@H]2CO)[C@H](O)[C@H](O)[C@H]1O (stereo partly drawn) and write its reported max response.
Return: 0.989

Enquiry: Give the value of max response reported for the following: C/C=C1\[C@H](OC2OC(COC3OC(CO)C(O)C(O)C3O)C(O)C(O)C2O)OC=C(C(=O)OC)[C@H]1CC(=O)OCCc1ccc(O)cc1 (stereo partly drawn)
Return: 2.72

Enquiry: Return value of max response for input "Cc1cc(C)c(CNC(=O)c2cc(-c3ccc(CN4CCOCC4)cc3)cc3c2cnn3C2CCCC2)c(=O)[nH]1" , no commentary.
Return: 8.22

Enquiry: Supply recorded max response for CCC1C(=O)OC23C=C[C@@H]4C(C(=O)O)=CO[C@H](O[C@@H]12)[C@@H]43 (stereo partly drawn) here.
Return: -1.99

Enquiry: Return reported max response. Input compound: C[C@]12C=C[C@@]3(CCC4[C@](C)(CO)CCC[C@@]4(C)C3CC1)C2 (stereo partly drawn)
Return: 4.11

Hello, I would appreciate it if you could give max response for each entry below.
1. C[C@@H]1CCC2C(C)(C)[C@H](O)CC[C@]2(C)[C@@]12Cc1c(O)cc3c(c1O2)CN([C@@H](CCC(=O)O)C(=O)O)C3=O (stereo partly drawn)
2. C=CC(C)(O)CC[C@H]1C(=C)CCC2[C@](C)(C(=O)O)CCC[C@@]21C (stereo partly drawn)
3. COc1ccc([C@H]2CNC(=O)C2)cc1OC1CCCC1
4. COc1cc(O)cc(C)c1C(=O)O[C@@H]1[C@H](O)[C@@H](CO)O[C@H]1n1ccc(=O)[nH]c1=O
5. CC1NC(=O)CCCNC(=O)C(Cc2c[nH]c3ccccc23)NC(=O)C(C)NC(=O)C(C(C)C)NC(=O)C(C(C)c2ccccc2)NC(=O)C(C(C)C)NC1=O (stereo not drawn) (cyclo([GABA]AV[ξPhe(βξ-Me)]VAW); configuration not given here)

Return:
1. 6.48
2. 0.39
3. -2.59
4. -16.4
5. -4.62

Working through the 3 compounds below one at a time, give max response for each.
1. CC1(C)CCC[C@]2(C)[C@H]3CC(=O)O[C@]3(C)CC[C@@H]12
2. CC(C)=CCC[C@](C)(O[C@@H]1O[C@H](CO[C@@H]2O[C@H](CO)[C@@H](O)[C@H](O)[C@H]2O)[C@@H](O)[C@H](O)[C@H]1O)C1CC[C@]2(C)[C@@H]1[C@H](O)CC1[C@@]3(C)CC[C@H](O[C@@H]4O[C@H](CO)[C@@H](O)[C@H](O)[C@H]4O[C@@H]4O[C@H](CO)[C@@H](O)[C@H](O)[C@H]4O)C(C)(C)[C@@H]3CC[C@]12C (stereo partly drawn)
3. O=C(O[C@H]1[C@@H]2C[C@@H]3OC[C@](O)([C@@H]1Cl)[C@H]2C(O[C@@H]1O[C@H](CO)[C@@H](O)[C@H](O)[C@H]1O)O3)c1ccc(O)c(O)c1 (stereo partly drawn)

Return:
[-11, -1.36, 6.86]
